B1: 6YSE (parent)
chain: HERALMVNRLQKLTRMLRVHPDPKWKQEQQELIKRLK

variants of: B1; experiment: folding stability dG (cDNA display proteolysis); higher = more stable; details: PBS, room temperature
Examples of variants with documented folding stability dG follow.

Residue String | Result Units | folding stability dG
HERALMVNRLQKLTRMLRVHPDPKWKQEQQCLIKRLK [E31C] | kcal/mol | 1.69
HERALMCNRLQKLTRMLRVHPDPKWKQEQQELIKRLK [V7C] | kcal/mol | 1.96
DERALMVNRLQKLTRMLRVHPDPKWKQEQQELIKRLK [H1D] | kcal/mol | 1.53
HERALMVNRLQKLTRMLRVHPDYKWKQEQQELIKRLK [P23Y] | kcal/mol | 0.554
HERALMVNRLQILTRMLRVHPDPKWKQEQQELIKRLK [K12I] | kcal/mol | 1.43
HERALMVNRLQKLTRMLRVHPDPKQKQEQQELIKRLK [W25Q] | kcal/mol | 0.755
HERALMVNRLQKLTRMLAVHPDPKWKQEQQELIKRLK [R18A] | kcal/mol | 1.45
HERALMVNRLQKLTAMLRVHPDPKWKQEQQELIKRLK [R15A] | kcal/mol | 1.32
HERALMVNRLQKLTRMLRVHPDPKWKQEVQELIKRLK [Q29V] | kcal/mol | 1.68
HERALMVNRLQKLTRMLRVHPDPKWKQEQQELIKYLK [R35Y] | kcal/mol | 1.16
HERALMVNRLQKLTRMLRVHPDPKWKQEQQEYIKRLK [L32Y] | kcal/mol | -0.525
HERALMVNRLQKLTRMLRVHPDPKVKQEQQELIKRLK [W25V] | kcal/mol | 1.22
HERALMVNRLQKLTRMLRKHPDPKWKQEQQELIKRLK [V19K] | kcal/mol | 1.55
